target-entity: UniProt P13569
condition-details: enteroid cells incubated with test compound 18-24 hours; acute 10 μM forskolin and 300 nM Compound III
As shown below, each of these molecules has a reported EC50 value.

>  <molecule>
[2H]c1ccc2nc1NCCC[C@@H]1CN(c3nc(-n4ccc(OCC([2H])([2H])C5C6(CC6)C56CC6)n4)ccc3C(=O)NS2(=O)=O)C(C)(C)C1 [Compound 298]

>  <EC50>
< 1000 nM

$$$$
>  <molecule>
CC1(C)C[C@H]2CCCNc3cccc(n3)S(=O)(=O)NC(=O)c3ccc(-n4ccc(OCCCC5(C(F)(F)F)CC5)n4)nc3N1C2 [Compound 190]

>  <EC50>
< 1000 nM

$$$$
>  <molecule>
CC1(C)C[C@@H]2CCCNc3cccc(n3)S(=O)(=O)NC(=O)c3ccc(-n4ccc(OCC(=O)C5C6(CC6)C56CC6)n4)nc3N1C2 [Compound 258]

>  <EC50>
< 1000 nM

$$$$
>  <molecule>
CC1(C)CC[C@H]2CNc3cccc(n3)S(=O)(=O)NC(=O)c3ccc(-n4ccc(OCCC5(C(F)(F)F)CC5)n4)nc3N21 (single isomer, unassigned) [Compound 51]

>  <EC50>
> 3000 nM

$$$$
>  <molecule>
CC1(C)CC2CCCNc3cc(ccn3)S(=O)(=O)NC(=O)c3ccc(-n4ccc(OCCC5(C(F)(F)F)CC5)n4)nc3N1C2 (stereo not shown) [Compound 93]

>  <EC50>
< 1000 nM

$$$$
>  <molecule>
CC1(C)C[C@H]2CCCn3ccc(n3)S(=O)(=O)NC(=O)c3ccc(N4CCC(OCCC5(C(F)(F)F)CC5)C4=O)nc3N1C2 (stereo in doubt) [Compound 183]

>  <EC50>
< 1000 nM

$$$$
>  <molecule>
CC1(C)C[C@@H]2CCCNc3cccc(n3)S(=O)(=O)NC(=O)c3ccc(-n4ccc(OCC[C@@H](O)C5(C(F)(F)F)CC5)n4)nc3N1C2 (single isomer, unassigned) [Compound 297]

>  <EC50>
< 1000 nM

$$$$
>  <molecule>
CC1(C)CC2CCCNc3cccc(n3)S(=O)(=O)NC(=O)c3ccc(-n4ccc(OCC5C6(CC6)C56CC6)n4)nc3N1C2 (racemic) [Compound 105]

>  <EC50>
< 1000 nM

$$$$
>  <molecule>
CC(C)C(COc1ccn(-c2ccc3c(n2)N2C[C@@H](CC2(C)C)OCCNc2cccc(n2)S(=O)(=O)NC3=O)n1)C(C)C (single isomer, unassigned) [Compound 248]

>  <EC50>
< 1000 nM

$$$$
>  <molecule>
CC1(C)C[C@H]2CCCCNc3ccc(cn3)S(=O)(=O)NC(=O)c3ccc(-n4ccc(OCC5C6(CC6)C56CC6)n4)nc3N1C2 (single isomer, unassigned) [Compound 120]

>  <EC50>
< 1000 nM

$$$$
>  <molecule>
CN1CCC[C@H]2CN(c3nc(-n4ccc(OCCC5(C(F)(F)F)CC5)n4)ccc3C(=O)NS(=O)(=O)c3cccc1n3)C(C)(C)C2 (single isomer, unassigned) [Compound 138]

>  <EC50>
> 3000 nM

$$$$
>  <molecule>
Cc1nn2cc1S(=O)(=O)NC(=O)c1ccc(-n3ccc(OCCC4(C(F)(F)F)CC4)n3)nc1N1C[C@@H](CCC2)CC1(C)C [Compound 112]

>  <EC50>
< 1000 nM

$$$$
>  <molecule>
CC1(C)C[C@H]2CCCn3ccc(n3)S(=O)(=O)NC(=O)c3ccc(-n4ccc(OCCC5C6(CC6)C56CC6)n4)nc3N1C2 [Compound 186]

>  <EC50>
< 1000 nM

$$$$
>  <molecule>
CC(C)C(COc1ccn(-c2ccc3c(n2)N2C[C@@H](CCCNc4cccc(n4)S(=O)(=O)NC3=O)CC2(C)C)n1)C(C)C [Compound 227]

>  <EC50>
< 1000 nM

$$$$
>  <molecule>
C[C@@H]1CC[C@H]2CN(c3nc(-n4ccc(OCCC5(C(F)(F)F)CC5)n4)ccc3C(=O)NS(=O)(=O)c3cccc(n3)N1)C(C)(C)C2 (single isomer, unassigned) [Compound 60]

>  <EC50>
< 1000 nM

$$$$
>  <molecule>
CC1(C)CCC2CCCCNc3cccc(n3)S(=O)(=O)NC(=O)c3ccc(-n4ccc(OCCC5(C(F)(F)F)CC5)n4)nc3N21 (stereo not shown) [Compound 37]

>  <EC50>
< 1000 nM

$$$$
>  <molecule>
CC1(C)C[C@@H]2CCCNc3cccc(n3)S(=O)(=O)NC(=O)c3ccc(N4CCN(CCC56CC7CC(CC(C7)C5)C6)C4=O)nc3N1C2 [Compound 228]

>  <EC50>
< 1000 nM

$$$$
>  <molecule>
CC1(C)C[C@@H]2CCCNc3cccc(n3)S(=O)(=O)NC(=O)c3ccc(-n4ccc(OC[C@@H](O)C5C6(CC6)C56CC6)n4)nc3N1C2 (single isomer, unassigned) [Compound 294]

>  <EC50>
1000 to 3000 nM

$$$$
>  <molecule>
CC(C)(C)COc1ccn(-c2ccc3c(n2)N2CC(CCNc4cccc(n4)S(=O)(=O)NC3=O)CC2(C)C)n1 (stereo not shown) [Compound 1]

>  <EC50>
< 1000 nM

$$$$
>  <molecule>
CC1(C)C[C@@H]2CN1c1nc(-n3ccc(OCCCC4(C(F)(F)F)CC4)n3)ccc1C(=O)NS(=O)(=O)c1cccc(n1)NCCO2 (single isomer, unassigned) [Compound 160]

>  <EC50>
< 1000 nM

$$$$
>  <molecule>
CC1(C)CC2CCCNc3cccc(n3)S(=O)(=O)NC(=O)c3ccc(-n4ccc(O)n4)nc3N1C2 (stereo not shown) [Compound 38]

>  <EC50>
> 3000 nM

$$$$
>  <molecule>
CC1(C)C[C@@H]2CCCNc3cccc(n3)S(=O)(=O)NC(=O)c3ccc(N4CC[C@H](CCC5C6(CC6)C56CC6)C4=O)nc3N1C2 (single isomer, unassigned) [Compound 177]

>  <EC50>
< 1000 nM

$$$$

====

target-entity: CFTR-mediated chloride transport (Homo sapiens, UniProt P13569)
Sequence (P13569 whole entry, looked up): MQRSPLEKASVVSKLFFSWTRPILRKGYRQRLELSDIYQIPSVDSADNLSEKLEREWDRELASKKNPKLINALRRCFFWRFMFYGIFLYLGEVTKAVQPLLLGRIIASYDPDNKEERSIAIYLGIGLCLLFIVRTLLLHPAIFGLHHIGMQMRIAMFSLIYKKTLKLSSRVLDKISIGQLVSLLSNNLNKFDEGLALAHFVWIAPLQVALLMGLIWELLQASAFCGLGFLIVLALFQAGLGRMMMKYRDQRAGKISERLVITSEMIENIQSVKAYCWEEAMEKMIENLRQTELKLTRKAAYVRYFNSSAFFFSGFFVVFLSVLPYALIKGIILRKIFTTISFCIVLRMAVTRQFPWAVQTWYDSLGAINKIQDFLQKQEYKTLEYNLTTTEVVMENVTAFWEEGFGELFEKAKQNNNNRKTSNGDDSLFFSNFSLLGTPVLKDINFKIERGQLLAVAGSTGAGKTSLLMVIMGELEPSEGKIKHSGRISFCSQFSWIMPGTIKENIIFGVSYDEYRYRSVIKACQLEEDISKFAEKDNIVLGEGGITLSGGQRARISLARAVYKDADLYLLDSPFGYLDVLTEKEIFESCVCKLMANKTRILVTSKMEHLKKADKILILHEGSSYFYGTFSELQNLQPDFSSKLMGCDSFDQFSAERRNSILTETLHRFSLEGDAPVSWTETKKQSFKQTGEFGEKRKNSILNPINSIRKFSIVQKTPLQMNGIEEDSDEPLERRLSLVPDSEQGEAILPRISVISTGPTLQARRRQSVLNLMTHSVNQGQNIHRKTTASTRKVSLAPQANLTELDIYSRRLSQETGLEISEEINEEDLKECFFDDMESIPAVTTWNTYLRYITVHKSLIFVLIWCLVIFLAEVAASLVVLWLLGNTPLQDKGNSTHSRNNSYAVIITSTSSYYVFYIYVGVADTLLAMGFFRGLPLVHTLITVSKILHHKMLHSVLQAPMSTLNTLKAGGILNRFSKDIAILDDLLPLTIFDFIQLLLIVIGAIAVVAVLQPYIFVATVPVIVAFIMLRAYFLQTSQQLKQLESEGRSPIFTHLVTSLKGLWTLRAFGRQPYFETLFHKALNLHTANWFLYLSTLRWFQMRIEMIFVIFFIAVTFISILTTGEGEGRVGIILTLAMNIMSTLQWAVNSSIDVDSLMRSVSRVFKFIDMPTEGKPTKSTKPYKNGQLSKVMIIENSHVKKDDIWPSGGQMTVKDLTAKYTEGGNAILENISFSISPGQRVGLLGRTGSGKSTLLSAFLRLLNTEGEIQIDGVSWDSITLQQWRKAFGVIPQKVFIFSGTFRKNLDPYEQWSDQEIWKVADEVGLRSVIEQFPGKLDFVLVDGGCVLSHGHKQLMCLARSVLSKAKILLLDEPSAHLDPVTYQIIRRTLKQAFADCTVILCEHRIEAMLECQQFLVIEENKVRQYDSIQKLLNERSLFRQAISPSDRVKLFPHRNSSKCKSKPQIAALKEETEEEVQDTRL
Format: cell-based
condition-details: enteroid cells incubated with test compound 18-24 hours; acute 10 μM forskolin and 300 nM Compound III; % of chloride transport with 3 μM Compound A, 3 μM Compound II and 300 nM acute Compound III triple combination control
readout: Max. Activity

>  <molecule>
CC1CCC2CN(c3nc(-n4ccc(OCCC5(C(F)(F)F)CC5)n4)ccc3C(=O)NS(=O)(=O)c3cccc(n3)N1)C(C)(C)C2 (centres unmarked) [Compound 35]

>  <target-entity>
CFTR-mediated chloride transport (Homo sapiens, UniProt P13569)

>  <test-value>
+++ (+++ is >60%)

$$$$
>  <molecule>
CC1(C)C[C@@H]2CN1c1nc(-n3ccc(OCCCC4(C(F)(F)F)CC4)n3)ccc1C(=O)NS(=O)(=O)c1cccc(n1)NCCO2 (single isomer, unassigned) [Compound 159]

>  <target-entity>
CFTR-mediated chloride transport (Homo sapiens, UniProt P13569)

>  <test-value>
+ (+ is <30%)

$$$$
>  <molecule>
CC1(C)C[C@@H]2CN1c1nc(-n3ccc(OCCC(C4CC4)C4CC4)n3)ccc1C(=O)NS(=O)(=O)c1cccc(n1)NCCO2 (single isomer, unassigned) [Compound 162]

>  <target-entity>
CFTR-mediated chloride transport (Homo sapiens, UniProt P13569)

>  <test-value>
++ (++ is 30-60%)

$$$$
>  <molecule>
CC1(C)C[C@@H]2CCCNc3cccc(n3)S(=O)(=O)NC(=O)c3ccc(-n4ccc(OCC(O)CC5(C(F)(F)F)CC5)n4)nc3N1C2 (some centres unmarked)

>  <target-entity>
CFTR-mediated chloride transport (Homo sapiens, UniProt P13569)

>  <test-value>
+++ (+++ is >60%)

$$$$
>  <molecule>
CC1(C)CC[C@H]2CCCNc3cccc(n3)S(=O)(=O)NC(=O)c3ccc(-n4ccc(OCCC(C5CC5)C5CC5)n4)nc3N21 (single isomer, unassigned) [Compound 137]

>  <target-entity>
CFTR-mediated chloride transport (Homo sapiens, UniProt P13569)

>  <test-value>
+ (+ is <30%)

$$$$
>  <molecule>
CC(C)(C)CCN1CCN(c2ccc3c(n2)N2CC(CCCn4ccc(n4)S(=O)(=O)NC3=O)CC2(C)C)C1=O (centres unmarked)

>  <target-entity>
CFTR-mediated chloride transport (Homo sapiens, UniProt P13569)

>  <test-value>
+ (+ is <30%)

$$$$
>  <molecule>
CN1CCC[C@H]2CN(c3nc(-n4ccc(OCCC(C5CC5)C5CC5)n4)ccc3C(=O)NS(=O)(=O)c3cccc1n3)C(C)(C)C2 (single isomer, unassigned) [Compound 204]

>  <target-entity>
CFTR-mediated chloride transport (Homo sapiens, UniProt P13569)

>  <test-value>
+ (+ is <30%)

$$$$
>  <molecule>
CC1(C)C[C@@H]2CCCNc3cccc(n3)S(=O)(=O)NC(=O)c3ccc(-n4cccc(OCCC5(C(F)(F)F)CC5)c4=O)nc3N1C2

>  <target-entity>
CFTR-mediated chloride transport (Homo sapiens, UniProt P13569)

>  <test-value>
++ (++ is 30-60%)

$$$$
>  <molecule>
CC1(C)C[C@@H]2CN1c1nc(-n3ccc(OCCC4(C(F)(F)F)CC4)n3)ccc1C(=O)NS(=O)(=O)c1ccn(n1)CCO2 (single isomer, unassigned) [Compound 167]

>  <target-entity>
CFTR-mediated chloride transport (Homo sapiens, UniProt P13569)

>  <test-value>
++ (++ is 30-60%)

$$$$
>  <molecule>
CC1(C)C[C@H]2CCCn3ccc(n3)S(=O)(=O)NC(=O)c3ccc(-n4ccc(OCCC5C(C)(C)C5(C)C)n4)nc3N1C2 (single isomer, unassigned) [Compound 207]

>  <target-entity>
CFTR-mediated chloride transport (Homo sapiens, UniProt P13569)

>  <test-value>
+++ (+++ is >60%)

$$$$
>  <molecule>
CC1(C)C[C@H]2C[C@@H](F)CNc3cccc(n3)S(=O)(=O)NC(=O)c3ccc(-n4ccc(OCCC5C6(CC6)C56CC6)n4)nc3N1C2 (single isomer, unassigned) [Compound 306]

>  <target-entity>
CFTR-mediated chloride transport (Homo sapiens, UniProt P13569)

>  <test-value>
+++ (+++ is >60%)

$$$$
